Tested on: S. pneumoniae mef A genotype (second strain so labelled)
PROCEDURE DETAILS: CLSI broth dilution MIC determination
Format: cell-based
MEASUREMENT CONTEXT: Gram-positive
MEASUREMENT TYPE: MIC

Solved entries:
{"COMPOUND": "CC[C@H]1OC(=O)[C@@](C)(F)C(=O)[C@H](C)[C@@H](O[C@@H]2OC(C)CC(N(C)C)C2O)[C@](C)(OC)C[C@@H](C)C(=O)[C@H](C)[C@H]2N(C/C=C/Cn3cc(-c4ccccn4)nn3)C(=O)O[C@]12C (some centres unmarked)", "EXPERIMENTAL RESULT": "< 0.0312 µg/mL"}
{"COMPOUND": "CC[C@H]1OC(=O)[C@@](C)(F)C(=O)[C@H](C)[C@@H](O[C@@H]2OC(C)CC(N(C)C)C2O)[C@](C)(OC)C[C@@H](C)C(=O)[C@H](C)[C@H]2N(C/C=C\\Cn3cc(-c4cccc(N)c4)nn3)C(=O)O[C@]12C (some centres unmarked)", "EXPERIMENTAL RESULT": "< 0.0312 µg/mL"}
{"COMPOUND": "CC[C@H]1OC(=O)[C@H](C)C(=O)[C@H](C)[C@@H](O[C@@H]2OC(C)CC(N(C)C)C2O)[C@](C)(OC)C[C@@H](C)C(=O)[C@H](C)[C@H]2N(CC3CC3Cn3cc(-c4cccc(N)c4)nn3)C(=O)O[C@]12C (single isomer, unassigned) [FSM-100428]", "EXPERIMENTAL RESULT": "< 0.0312 µg/mL"}
{"COMPOUND": "CC[C@H]1OC(=O)[C@H](C)C(=O)[C@H](C)[C@@H](O[C@@H]2OC(C)CC(N(C)C)C2O)[C@](C)(OC)C[C@@H](C)C(=O)[C@H](C)[C@H]2N(CC3CC3Cn3cc(-c4cccc(N)c4)nn3)C(=O)O[C@]12C (single isomer, unassigned) [FSM-100434]", "EXPERIMENTAL RESULT": "0.125 µg/mL"}
{"COMPOUND": "CC[C@H]1OC(=O)[C@H](C)C(=O)[C@H](C)[C@@H](O[C@@H]2OC(C)CC(N(C)C)C2O)[C@](C)(OC)C[C@@H](C)C(=O)[C@H](C)[C@H]2N(C/C=C/Cn3cc(-c4ccccn4)nn3)C(=O)O[C@]12C (some centres unmarked)", "EXPERIMENTAL RESULT": "< 0.0312 µg/mL"}

Any idea what MIC was measured for CC[C@H]1OC(=O)[C@H](C)C(=O)[C@H](C)[C@@H](O[C@@H]2OC(C)CC(N(C)C)C2O)[C@](C)(OC)C[C@@H](C)C(=O)[C@H](C)[C@H]2N(C/C=C/Cn3nnc(-c4ccccn4)n3)C(=O)O[C@]12C (some centres unmarked) ? 0.125 µg/mL

What about CC[C@H]1OC(=O)[C@@](C)(F)C(=O)[C@H](C)[C@@H](O[C@@H]2OC(C)CC(N(C)C)C2O)[C@](C)(OC)C[C@@H](C)C(=O)[C@H](C)[C@H]2N(C/C=C/Cn3cc(-c4cccc(N)n4)nn3)C(=O)O[C@]12C (some centres unmarked) ? < 0.0312 µg/mL

Similarly, CC[C@H]1OC(=O)[C@@](C)(F)C(=O)[C@H](C)[C@@H](O[C@@H]2OC(C)CC(N(C)C)C2O)[C@](C)(OC)C[C@@H](C)C(=O)[C@H](C)[C@H]2N(CC#CCn3cc(-c4cccc(N)c4)nn3)C(=O)O[C@]12C (some centres unmarked) ? < 0.0312 µg/mL
